- target-or-system: human α4β7 (Homo sapiens, UniProt P13612+P26010)
- Construct: expressed in transfected cells
- Sequence (P13612 34-1032): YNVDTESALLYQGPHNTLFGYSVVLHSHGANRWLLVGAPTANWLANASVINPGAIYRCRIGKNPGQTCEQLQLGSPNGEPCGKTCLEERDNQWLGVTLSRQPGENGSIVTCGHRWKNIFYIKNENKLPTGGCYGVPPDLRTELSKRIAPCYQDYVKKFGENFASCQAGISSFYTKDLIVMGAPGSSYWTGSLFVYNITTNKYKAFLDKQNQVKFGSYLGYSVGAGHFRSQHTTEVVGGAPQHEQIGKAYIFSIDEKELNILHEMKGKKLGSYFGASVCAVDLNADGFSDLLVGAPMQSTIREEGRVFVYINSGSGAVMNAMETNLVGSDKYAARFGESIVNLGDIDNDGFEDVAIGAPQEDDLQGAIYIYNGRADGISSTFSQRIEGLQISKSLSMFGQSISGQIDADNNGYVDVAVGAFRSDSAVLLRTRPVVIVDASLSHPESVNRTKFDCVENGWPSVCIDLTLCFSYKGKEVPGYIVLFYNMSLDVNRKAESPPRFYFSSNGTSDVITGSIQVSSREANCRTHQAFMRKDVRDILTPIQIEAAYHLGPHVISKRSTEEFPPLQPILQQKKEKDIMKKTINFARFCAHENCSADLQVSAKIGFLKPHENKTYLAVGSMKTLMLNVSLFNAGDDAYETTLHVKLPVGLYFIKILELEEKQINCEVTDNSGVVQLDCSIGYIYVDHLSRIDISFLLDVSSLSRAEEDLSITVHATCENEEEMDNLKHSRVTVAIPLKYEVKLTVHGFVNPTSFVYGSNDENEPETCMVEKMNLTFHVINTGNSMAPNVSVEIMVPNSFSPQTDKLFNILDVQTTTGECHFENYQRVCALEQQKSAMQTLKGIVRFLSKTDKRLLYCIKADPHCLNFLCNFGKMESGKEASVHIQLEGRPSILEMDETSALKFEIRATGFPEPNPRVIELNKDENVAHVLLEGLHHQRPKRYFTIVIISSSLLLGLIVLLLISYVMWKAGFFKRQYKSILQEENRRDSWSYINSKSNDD
- Sequence (P26010 20-798): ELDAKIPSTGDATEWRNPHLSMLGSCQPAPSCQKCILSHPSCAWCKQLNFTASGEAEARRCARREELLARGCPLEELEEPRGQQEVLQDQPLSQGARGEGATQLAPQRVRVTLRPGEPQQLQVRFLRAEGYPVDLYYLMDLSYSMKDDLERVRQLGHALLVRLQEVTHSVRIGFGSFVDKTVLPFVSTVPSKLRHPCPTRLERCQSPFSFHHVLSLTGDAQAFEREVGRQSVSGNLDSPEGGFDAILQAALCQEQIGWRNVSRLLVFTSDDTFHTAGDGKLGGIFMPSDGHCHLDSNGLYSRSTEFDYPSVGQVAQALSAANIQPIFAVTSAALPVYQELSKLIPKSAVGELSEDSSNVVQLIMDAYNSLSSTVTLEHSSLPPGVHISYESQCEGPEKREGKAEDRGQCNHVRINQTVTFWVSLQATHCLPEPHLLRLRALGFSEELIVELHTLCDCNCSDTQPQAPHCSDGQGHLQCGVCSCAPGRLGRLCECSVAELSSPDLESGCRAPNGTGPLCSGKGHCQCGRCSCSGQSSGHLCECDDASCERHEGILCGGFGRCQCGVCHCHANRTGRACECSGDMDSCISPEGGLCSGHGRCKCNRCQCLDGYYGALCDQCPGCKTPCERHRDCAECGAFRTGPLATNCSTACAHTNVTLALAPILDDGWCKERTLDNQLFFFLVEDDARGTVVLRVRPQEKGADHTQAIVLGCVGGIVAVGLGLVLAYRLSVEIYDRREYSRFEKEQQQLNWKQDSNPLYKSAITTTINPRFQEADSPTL
- experiment-summary: α4β7-K562 Cell Adhesion Assay (α4β7 Mediated Adhesion/VCAM-1)
- Format: cell-based
- condition: Table IV; μM; read-out: Inhibition of Binding of K562 Cells to Immobilized VCAM-1 IC50

compound: O=C(O)C(Cc1ccc(OCc2c(Cl)cccc2Cl)c(F)c1)NC(=O)C1C2CCC(CC2)N1S(=O)(=O)c1ccccc1 (stereo not drawn) [Cpd 62]
IC50: > 10 µM
//
compound: O=C(Nc1ccc(C[C@H](NC(=O)C2C3CCC(CC3)N2S(=O)(=O)c2ccccc2)C(=O)O)cc1)Nc1c(F)cccc1F (stereo partly drawn) [Cpd 34]
IC50: > 10 µM
//
compound: CN(C(=O)[C@H]1C2CCC(CC2)N1S(=O)(=O)c1ccccc1)[C@@H](Cc1ccc(NC(=O)c2c(Cl)cccc2Cl)cc1)C(=O)O [Cpd 39]
IC50: > 10 µM
//
compound: COc1cccc(OC)c1C(=O)Nc1cccc(C[C@H](NC(=O)C2C3CCC(CC3)N2S(=O)(=O)c2ccc(C)cc2)C(=O)O)c1 (stereo partly drawn) [Cpd 36]
IC50: > 10 µM
//
compound: O=C(N[C@@H](Cc1ccc(NS(=O)(=O)c2c(Cl)cccc2Cl)cc1)C(=O)O)C1C2CCC(CC2)N1S(=O)(=O)c1ccccc1 (stereo partly drawn) [Cpd 51]
IC50: > 5 µM
//
compound: Cc1ccc(S(=O)(=O)N2C3CCC(CC3)C2C(=O)N[C@@H](Cc2ccc(NC(=O)c3c(C(C)C)cc(C(C)C)cc3C(C)C)cc2)C(=O)O)cc1 (stereo partly drawn) [Cpd 31]
IC50: > 10 µM
